B1: COUP transcription factor 1, residues 83 to 159; numbered along this chain, P10589 (parent)
chain: HIECVVCGDKSSGKHYGQFTCEGCKSFFKRSVRRNLTYTCRANRNCPIDQHHRNQCQYCRLKKCLKVGMRREAVQRG

- Variants of: B1
- testProtocol: abundance fitness (aPCA) (normalised: wild type 0, dead -1); higher = more abundant; growth selection in yeast, the domain comes from the species named
- setupConditions: Homo sapiens
Documented abundance fitness across a set of variants

// worked examples, abundance fitness included
seq	abundance fitness
HIECVVCGDKSSGKHYGQFTCEGCKSFFKRSVRRNLTYTCRANRNCPIDQHHRNMCQYCRLKKCLKVGMRREAVQRG [Q55M]	-0.126
HIECVVCGDKSSGKHYGQFTCEGCKSFFKRSVRRNLTYTCRANRNCPIDQHHRNQCQYCRLKKFLKVGMRREAVQRG [C64F]	-0.903
HIECVVCGDKSSGKHYGQFTCEGCKSFFKRSVRRNLTYTCRANRNCPIDQHHRNQCQYCRLAKCLKVGMRREAVQRG [K62A]	0.044

Input HIECVVCGDKSSGKHYGQFTCEGCKSFFKRSVRRNLTYTCRANRNCPIDQHHRNQCQYCRLKKCLKVGMRREPVQRG [A73P] . Output abundance fitness: -0.11

Input HIECVVCGDKSSGKHYGQFTCEFCKSFFKRSVRRNLTYTCRANRNCPIDQHHRNQCQYCRLKKCLKVGMRREAVQRG [G23F] . Output abundance fitness: 0.044

Input HIECVVCGDKSSGKHYGQFTCEGCKSFFKRSVRRNLTYTCRANRNCPIDQHHRNQCQYCRLKKCLRVGMRREAVQRG [K66R] . Output abundance fitness: -0.021

Input HIECVVCGDKSSGKHYGQFTCEGCKSFFKRSVRRNLTYTCRANRNCPIDQHHRNQCQYCRLKKCLKVGMRREAEQRG [V74E] . Output abundance fitness: -0.004

Input HIECVVCGDKSSGKHYGQFTCEGCKSFFKRSVRRNLTYTCRANFNCPIDQHHRNQCQYCRLKKCLKVGMRREAVQRG [R44F] . Output abundance fitness: -0.207

Input HIECVVCGDKSSGKHYGQFTCEGCKSFFKRSVRRNLTYTCNANRNCPIDQHHRNQCQYCRLKKCLKVGMRREAVQRG [R41N] . Output abundance fitness: 0.21

Input HIECVVCGDKSSGKHYGQFTCESCKSFFKRSVRRNLTYTCRANRNCPIDQHHRNQCQYCRLKKCLKVGMRREAVQRG [G23S] . Output abundance fitness: -0.174

Input HIECVVCGDKSSGKHYGQFTCEGCKSFFKRSVRRNLTYTCRANRNCPIDQHHRNQCHYCRLKKCLKVGMRREAVQRG [Q57H] . Output abundance fitness: 0.054

Input HIECVVCGDKSSGKHYGQFTCEGCKSFFKRSVRRSLTYTCRANRNCPIDQHHRNQCQYCRLKKCLKVGMRREAVQRG [N35S] . Output abundance fitness: -0.508
